biological target: AaBioW (pimeloyl-CoA synthetase BioW) (Aquifex aeolicus, UniProt O67575); test: ITC; type: binding
Sequence (O67575 whole entry): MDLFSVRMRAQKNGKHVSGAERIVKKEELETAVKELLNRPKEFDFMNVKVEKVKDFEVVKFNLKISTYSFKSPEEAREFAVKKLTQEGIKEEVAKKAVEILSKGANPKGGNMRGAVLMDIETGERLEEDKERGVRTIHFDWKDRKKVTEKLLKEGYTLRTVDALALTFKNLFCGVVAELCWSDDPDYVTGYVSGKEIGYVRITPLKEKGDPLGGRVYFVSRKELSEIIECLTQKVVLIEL
pKd: −log10 of the molar value.
quantity_kind: pKd

[[record]]
structure_as_smiles = "CC(C)(COP(=O)(O)OP(=O)(O)OC[C@H]1O[C@@H](n2cnc3c(N)ncnc32)[C@H](O)[C@@H]1OP(=O)(O)O)[C@@H](O)C(=O)NCCC(=O)NCCS"
measured = 4.85


----------
biological target: UniProtKB O67575; test: ITC; type: binding
pKd: −log10 of the molar value.
quantity_kind: pKd

[[record]]
molecule = "Nc1ncnc2c1ncn2[C@@H]1O[C@H](COP(=O)(O)OP(=O)(O)OP(=O)(O)O)[C@@H](O)[C@H]1O [ATP]"
measured = 4.89

